Source: ChEMBL document CHEMBL5058577

System: HEK-293T
assayComment: Multiplex assay against HEK293T
Assay type: toxicity, cell-based
particulars: human, 12 h, 1 µM, compound concentration 1 uM, replicate 2
measuredAttribute: Population Mitotic Cells (%)
One number for each entry, in %.

Use these answered entries as a reference point.
{"compound": "CC(/C=C1\\SC(=S)N(CCCC(=O)Nc2ccc(C(=O)O)c(O)c2)C1=O)=C\\c1ccccc1", "assayTarget": "HEK-293T", "valueUnits": "%", "experimentalResult": 50}
{"compound": "O=C(NCCN1CCC(n2c(=O)[nH]c3cc(Cl)ccc32)CC1)c1ccc(F)cc1 [HALOPEMIDE]", "assayTarget": "HEK-293T", "valueUnits": "%", "experimentalResult": 56}
{"compound": "Cc1c(CC(=O)O)c2cccnc2n1Cc1ccc(S(C)(=O)=O)cc1C(F)(F)F", "assayTarget": "HEK-293T", "valueUnits": "%", "experimentalResult": 58}
{"compound": "C[C@H](N)COC(=O)[C@@H](CCCCN)NC(=O)Cc1c(-c2ccc3ccccc3c2)[nH]c2c1ccc1ccccc12", "assayTarget": "HEK-293T", "valueUnits": "%", "experimentalResult": 48}
{"compound": "CC(C)(C)c1cc(NC(=O)Nc2ccc(-c3cn4c(n3)sc3cc(OCCN5CCOCC5)ccc34)cc2)no1", "assayTarget": "HEK-293T", "valueUnits": "%", "experimentalResult": 65}

State recorded Population Mitotic Cells (%) for all listed compounds.
1. Cc1cnc(-c2cc(N3CCN(C(=O)CCS(C)(=O)=O)CC3)ncc2Cl)c(C)c1
2. Cl.N=C(N)NC(=O)Cc1c(Cl)cccc1Cl [GUANFACINE HYDROCHLORIDE]
3. CN1CCN(c2cc(-c3ccccc3)nc(N)n2)CC1
4. CN(C)C(=O)Cn1cc(-c2ccc(-c3cncc4ccccc34)cc2)cn1
5. CN[C@@H](C)C(=O)N[C@H](C(=O)N1CCC[C@H]1C(=O)Nc1snnc1-c1ccccc1)C1CCCCC1
6. Br.CS(=O)(=O)Nc1c(O)ccc2c1CCCC2C1=NCCN1 (stereo not drawn)

## Result
[57, 52, 65, 59, 39, 56]

====

System: U2OS
assayComment: Multiplex assay against U2OS
Type: toxicity, cell-based
particulars: human, 48 h, 10 µM, compound concentration 10 uM, replicate 1
measuredAttribute: Population Healthy Nuclei (%)
Numbers only, in %.

State recorded Population Healthy Nuclei (%) for all listed compounds.
1. CC(C)(C)c1cc(NC(=O)Nc2ccc(-c3cn4c(n3)sc3cc(OCCN5CCOCC5)ccc34)cc2)no1 [QUIZARTINIB]
2. Br.CS(=O)(=O)Nc1c(O)ccc2c1CCCC2C1=NCCN1 (stereo not drawn)
3. Cl.NCCc1ccc(O)c(O)c1 [DOPAMINE HYDROCHLORIDE]

## Result
25
70
66

State recorded Population Healthy Nuclei (%) for all listed compounds.
1. CCc1cc2cc(NS(=O)(=O)c3ccc(C#N)cc3)ccc2n(CC)c1=O
2. COC[C@@H](c1ccc(C(F)(F)F)cc1)N1CCN(C2(C)CCN(C(=O)c3c(C)ncnc3C)CC2)C[C@@H]1C.O=C(O)/C=C\C(=O)O [VICRIVIROC MALEATE]

## Result
72
70

State recorded Population Healthy Nuclei (%) for all listed compounds.
1. O=C1[C@H](Cc2ccc(O)cc2)N2C(=O)CCN(C(=O)NCc3ccccc3)[C@H]2CN1Cc1cccc2ccccc12
2. CC[C@@H](C)Nc1nc(C)nc2c(-c3ccc(OC)nc3C)c(C)nn12 [PEXACERFONT]
3. CCCCC1=NC2(CCCC2)C(=O)N1Cc1ccc(-c2ccccc2-c2nnn[nH]2)cc1 [IRBESARTAN]
4. COc1cccc2c1c(NS(=O)(=O)c1ccc(Cl)s1)nn2Cc1cccc(CNC(=O)C(C)(C)O)c1
5. C[C@H](N)COC(=O)[C@@H](CCCCN)NC(=O)Cc1c(-c2ccc3ccccc3c2)[nH]c2c1ccc1ccccc12

## Result
[43, 74, 75, 71, 74]

State recorded Population Healthy Nuclei (%) for all listed compounds.
1. CC(=O)Nc1cccc2c1c(Sc1ccc(Cl)cc1)c(C)n2CC(=O)O [AZD1981]
2. Cc1cccc(NC(=O)CN2CCC(c3ccccn3)CC2)c1.Cl.Cl
3. CCCCC(=O)N(Cc1ccc(-c2ccccc2-c2nnn[nH]2)cc1)[C@H](C(=O)O)C(C)C
4. Cc1noc(-c2ccc(-c3ccc(CC(=O)O)cc3)cc2)c1NC(=O)O[C@H](C)c1ccccc1Cl
5. CN1CCN(c2cc(-c3ccccc3)nc(N)n2)CC1
6. N#Cc1c(Oc2cccc(OS(=O)(=O)CCCC(F)(F)F)c2)cccc1C(F)(F)F
7. Cc1sc2c(c1C)C(c1ccc(Cl)cc1)=N[C@@H](CC(=O)NCCCCCCCCNC(=O)COc1cccc3c1C(=O)N(C1CCC(=O)NC1=O)C3=O)c1nnc(C)n1-2 (stereo partly drawn)

## Result
1. 75
2. 60
3. 70
4. 72
5. 71
6. 64
7. 51

## Task Specify the recorded Population Healthy Nuclei (%) for CCCOc1ccc2[nH]cc(C3=CCNCC3)c2n1.Cl , system: U2OS.
## Result 75
